Assay: Lipophilicity, log D of the compound
Assay type: physicochemical
Details: octanol/water
assay endpoint: logD
Note: the reply should be a number with no unit written.

The examples below pair each entry with its known result.
What does the data say about its logD? Entry: `O=C(N[C@H](CO)C(=O)NO)c1ccc(C#Cc2ccccc2)cc1`
2

What does the data say about its logD? Entry: `CS(=O)(=O)C[C@H](NC(=O)c1ccc(C#Cc2ccccc2)cc1)C(=O)NO`
2

What does the data say about its logD? Entry: `CC(C)(NC(=O)c1ccc(C#Cc2ccccc2)cc1)C(=O)NO`
3

What does the data say about its logD? Entry: `O=C(NC1(C(=O)NO)CCNCC1)c1ccc(C#Cc2ccccc2)cc1`
3

What does the data say about its logD? Entry: `O=C(NC1(C(=O)NO)CCS(=O)(=O)CC1)c1ccc(C#Cc2ccccc2)cc1`
3

---
What does the data say about its logD? Entry: `O=C(N[C@@H](CO)C(=O)NO)c1ccc(C#Cc2ccccc2)cc1`
2

What does the data say about its logD? Entry: `C[C@H](O)[C@H](NC(=O)c1ccc(C#Cc2ccccc2)cc1)C(=O)NO`
2

What does the data say about its logD? Entry: `COCCNC(=O)C[C@H](NC(=O)c1ccc(C#Cc2ccccc2)cc1)C(=O)NO`
2

What does the data say about its logD? Entry: `O=C(N[C@H](C(=O)NO)c1ccccc1)c1ccc(C#Cc2ccccc2)cc1`
3

----------
Assay: Lipophilicity, log D of the compound
Assay type: physicochemical
Conditions: octanol/water
Listing of recorded logD by entry.

What does the data say about its logD? Entry: `O=C(NC1(C(=O)NO)CCCCC1)c1ccc(C#Cc2ccccc2)cc1`
> 3

What does the data say about its logD? Entry: `CSC[C@H](NC(=O)c1ccc(C#Cc2ccccc2)cc1)C(=O)NO`
3

What does the data say about its logD? Entry: `O=C(NC1(C(=O)NO)CCC1)c1ccc(C#Cc2ccccc2)cc1`
> 3

What does the data say about its logD? Entry: `NC[C@H](NC(=O)c1ccc(C#Cc2ccccc2)cc1)C(=O)NO`
2

What does the data say about its logD? Entry: `NC(=O)C[C@H](NC(=O)c1ccc(C#Cc2ccccc2)cc1)C(=O)NO`
1

What does the data say about its logD? Entry: `O=C(NC1(C(=O)NO)CCOCC1)c1ccc(C#Cc2ccccc2)cc1`
> 4

What does the data say about its logD? Entry: `O=C(C[C@H](NC(=O)c1ccc(C#Cc2ccccc2)cc1)C(=O)NO)NCCCO`
2

What does the data say about its logD? Entry: `C#CCNC(=O)C[C@H](NC(=O)c1ccc(C#Cc2ccccc2)cc1)C(=O)NO`
3

What does the data say about its logD? Entry: `O=C(CNC(=O)c1ccc(C#Cc2ccccc2)cc1)NO`
3

---
What does the data say about its logD? Entry: `O=C(N[C@@H](C(=O)NO)c1ccccc1)c1ccc(C#Cc2ccccc2)cc1`
> 3

Ref: ChEMBL document CHEMBL2375281
